Where do the numbers come from? From patent US20190202883A1.

Molecular target: T1, human NPY2R (human, UniProt P49146 1-381)
T1 sequence (looked up): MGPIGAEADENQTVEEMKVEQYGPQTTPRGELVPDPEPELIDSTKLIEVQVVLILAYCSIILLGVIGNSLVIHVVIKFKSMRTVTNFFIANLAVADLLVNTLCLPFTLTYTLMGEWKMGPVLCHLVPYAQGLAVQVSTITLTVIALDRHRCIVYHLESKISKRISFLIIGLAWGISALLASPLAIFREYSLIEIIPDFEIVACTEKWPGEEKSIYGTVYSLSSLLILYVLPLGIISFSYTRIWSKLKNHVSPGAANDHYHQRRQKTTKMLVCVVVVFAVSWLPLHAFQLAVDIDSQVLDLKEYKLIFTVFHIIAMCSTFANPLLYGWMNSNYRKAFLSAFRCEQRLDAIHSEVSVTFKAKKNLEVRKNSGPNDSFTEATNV
Experiment: cell-based or functional assay
Square brackets hold non-standard residues; d marks the D form. Side chains are listed from the residue outwards. αMeF = C[C@](N)(Cc1ccccc1)C(=O)O; Iva = CC[C@](C)(N)C(=O)O; Oda = not defined here; Aib = CC(C)(N)C(=O)O
assay.readout: Agonist activity (EC50), Cre-luc reporter assay (nM)
Give bare numbers, in nM.

input: State its Agonist activity (EC50), Cre-luc reporter assay: H-Y[Aib]EGT[αMeF]TSDK([Gly-Gly-Gly-Gly-Oda])AI[Aib]LEKQRQ[Iva]EFVRHLLNK[Aib]TRQRY-NH2 (reading uncertain; also: printed as H-Tyr-Aib-Glu-Gly-Thr-αMePhe-Thr-Ser-Asp-Lys(-Gly-Gly-Gly-Gly-Oda)-Ala-Ile-Aib-Leu-Glu-Lys-Gln-Arg-Gln-Iva-Glu-Phe-Val-Arg-His-Leu-Leu-Asn-Lys-Aib-Thr-Arg-Gln-Arg-Tyr-NH2)
output: 1.1
